- MEASUREMENT_TARGET: T1, human IL-10 receptor (hIL-10R alpha and beta chains) on HEK-Blue IL-10 reporter cells (human, UniProt Q13651 22-578; Q08334 20-325)
- T1 sequence 1: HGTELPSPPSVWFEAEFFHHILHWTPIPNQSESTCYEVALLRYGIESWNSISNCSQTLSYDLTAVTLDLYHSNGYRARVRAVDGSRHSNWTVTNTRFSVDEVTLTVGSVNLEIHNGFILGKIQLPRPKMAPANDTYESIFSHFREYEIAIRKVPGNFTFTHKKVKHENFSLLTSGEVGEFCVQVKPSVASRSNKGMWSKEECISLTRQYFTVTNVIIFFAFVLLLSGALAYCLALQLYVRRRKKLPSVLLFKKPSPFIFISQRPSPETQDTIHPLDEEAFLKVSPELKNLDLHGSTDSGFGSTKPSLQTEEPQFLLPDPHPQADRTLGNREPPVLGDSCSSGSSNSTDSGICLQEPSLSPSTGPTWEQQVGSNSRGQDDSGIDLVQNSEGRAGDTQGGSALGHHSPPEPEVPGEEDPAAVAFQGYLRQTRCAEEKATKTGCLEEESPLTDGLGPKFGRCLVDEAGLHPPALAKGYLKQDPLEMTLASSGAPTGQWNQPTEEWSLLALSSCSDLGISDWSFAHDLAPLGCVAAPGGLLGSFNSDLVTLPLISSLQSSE
- T1 sequence 2: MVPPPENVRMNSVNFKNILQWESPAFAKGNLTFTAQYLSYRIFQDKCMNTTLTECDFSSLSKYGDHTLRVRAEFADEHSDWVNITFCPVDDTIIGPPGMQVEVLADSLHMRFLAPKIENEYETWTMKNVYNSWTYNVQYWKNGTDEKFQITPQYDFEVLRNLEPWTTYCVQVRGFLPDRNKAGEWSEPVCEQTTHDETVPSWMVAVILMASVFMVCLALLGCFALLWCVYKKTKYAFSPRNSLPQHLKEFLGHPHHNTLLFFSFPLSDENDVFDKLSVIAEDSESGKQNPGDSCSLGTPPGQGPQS
- ASSAY_SUMMARY: cell-based or functional assay
READOUT_KIND: Abs 630 (100 nM) (Abs 630)
Give the value, in units of Abs 630, as a plain number.

Query block: Name the reported Abs 630 (100 nM) value associated with the binder IL10R binding molecule of SEQ ID NO: 288 (bispecific antibody) QVQLQESGGGSVQAGGSLRLSCTVSGYTYSSNCMGWFRQAPGKEREGVATIYTGGGNTYYADSVKGRFTISQDNAKNTVYLQMNNLKPEDTAMYYCAAEPLSRVYGGSCPTPTFDYWGQGTQVTVSSGGGSQVQLQESGGGSVEAGGSLRLSCAASGYTHSSYCMGWFRQAPGKEREGVAAIDVDGSTTYADSVKGRFTISKDNAKNTLYLQMNSLKPEDTGMYYCAAEFADCSSNYFLPPGAVRYWGQGTQVTVSSASHHHHHH
Result block: 0.44
